Settings: Study 1; rezafungin 400 mg i.v. (day 10 or 15); geometric LSM ratio x 100, ANOVA
Experimental: Both were phase 1, single-center, open-label, crossover inpatient studies that were conducted in the United States in healthy adults (study 1, aged 26 to 55 years; study 2, aged 21 to 59 years). […] The primary analysis of the drug interaction effect on substrate drugs following rezafungin administration was assessed by the ratio of the geometric least-squares (LS) mean of each substrate drug administered with rezafungin to that without rezafungin. […]
observation-type: AUC0–t, geometric mean ratio (drug + rezafungin / drug alone) (%)
Answers are plain numbers, in %.

# return AUC0–t, geometric mean ratio (drug + rezafungin / drug alone) for each item in the list
1. Cn1c(=O)c2c(ncn2C)n(C)c1=O
2. O=C(O)C[C@H](O)C[C@H](O)/C=C/c1c(C2CC2)nc2ccccc2c1-c1ccc(F)cc1
3. CN(C)C(=N)N=C(N)N
4. O=C1Nc2ccc(Cl)cc2[C@@](C#CC2CC2)(C(F)(F)F)O1
5. CC(C)c1nc(N(C)S(C)(=O)=O)nc(-c2ccc(F)cc2)c1/C=C/[C@@H](O)C[C@@H](O)CC(=O)O
6. Cc1ncc2n1-c1ccc(Cl)cc1C(c1ccccc1F)=NC2

[A]
[107.23, 105.30, 98.96, 101.87, 115.13, 101.06]

---

target: CYP3A4 (Homo sapiens, UniProt P08684)
Sequence (P08684 whole entry): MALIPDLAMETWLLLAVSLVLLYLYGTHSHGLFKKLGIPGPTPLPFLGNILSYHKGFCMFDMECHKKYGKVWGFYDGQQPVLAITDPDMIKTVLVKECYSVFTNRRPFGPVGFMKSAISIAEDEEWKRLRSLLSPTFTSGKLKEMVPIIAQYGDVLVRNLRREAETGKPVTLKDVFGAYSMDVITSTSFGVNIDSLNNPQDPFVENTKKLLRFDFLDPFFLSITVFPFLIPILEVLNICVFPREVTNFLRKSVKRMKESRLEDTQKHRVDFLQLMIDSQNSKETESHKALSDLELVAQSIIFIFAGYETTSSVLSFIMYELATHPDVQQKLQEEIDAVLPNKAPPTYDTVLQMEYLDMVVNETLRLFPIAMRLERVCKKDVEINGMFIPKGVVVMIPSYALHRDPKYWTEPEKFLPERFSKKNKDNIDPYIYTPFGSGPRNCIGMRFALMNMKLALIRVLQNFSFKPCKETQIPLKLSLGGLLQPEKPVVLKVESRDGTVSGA
Numbered stars: 1 amine (or outer) side, 2 acyl side, 3 side chain; on linkers, the order of the positions; unused ones are H or OH. Bridge positions count the residues as written; N and C are the ends. Square brackets hold non-standard residues; d marks the D form. Peptide text beside a SMILES is read from it. * marks the point of attachment. Orn(4R-OH,5R-OCH2CH2NMe3+) = C[N+](C)(C)CCO[C@@H](N[*:3])[C@H](O)C[C@H](N[*:1])C(=O)[*:2]; pTerphenylCO(4''-OnC5H11) = CCCCCOc1ccc(-c2ccc(-c3ccc(C(=O)*)cc3)cc2)cc1; hTyr(3S-OH,4S-OH) = N[C@H](C(=O)O)[C@H](O)[C@@H](O)c1ccc(O)cc1; Pro(3S-OH,4S-Me) = C[C@H]1CN[C@H](C(=O)O)[C@H]1O; Hyp = O=C(O)[C@@H]1C[C@@H](O)CN1
observation-type: IC50

[Q] Fill in: IC50 of CCCCCOc1ccc(-c2ccc(-c3ccc(C(=O)N[C@H]4C[C@@H](O)[C@@H](OCC[N+](C)(C)C)NC(=O)[C@@H]5[C@@H](O)[C@@H](C)CN5C(=O)[C@H]([C@@H](C)O)NC(=O)[C@H]([C@H](O)[C@@H](O)c5ccc(O)cc5)NC(=O)[C@@H]5C[C@@H](O)CN5C(=O)[C@H]([C@@H](C)O)NC4=O)cc3)cc2)cc1 [Rezafungin] ({pTerphenylCO(4''-OnC5H11)}-[Orn(4R-OH,5R-OCH2CH2NMe3+)]T[Hyp][hTyr(3S-OH,4S-OH)]T[Pro(3S-OH,4S-Me)]; lactam 1-C) is ___
[A] > 25 µM

---

conditions: Study 1, healthy subjects; oral metformin 500 mg, pitavastatin 2 mg (day 10) or caffeine 100 mg, efavirenz 50 mg, midazolam 2 mg, digoxin 0.25 mg (day 15) with i.v. rezafungin 400 mg; plasma, LC-MS/MS, NCA
observation-type: AUC0–∞, geometric LSM value, + rezafungin (ng·h/mL)
Numbers only, in ng·h/mL.

smiles-repr: Cc1ncc2n1-c1ccc(Cl)cc1C(c1ccccc1F)=NC2
uom: ng·h/mL
value-measured: 23.67

Now for the compound whose AUC0–∞, geometric LSM value, + rezafungin we want.
[Q] Fill in: AUC0–∞, geometric LSM value, + rezafungin of O=C(O)C[C@H](O)C[C@H](O)/C=C/c1c(C2CC2)nc2ccccc2c1-c1ccc(F)cc1 is ___
[A] 90.87
